System: transient receptor potential cation channel N1 (TRPN1/NompC), Danio rerio
experimentalDetails: zebrafish TRPN1 channel agonists, primary screen, cell-based, HEK293, calcium fluorescence (AID 1424);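 further: 0% = DMSO alone and 100% = 87 µM carbachol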
conditionParameters: HEK293 zebrafish TRPN1-YFP, Fluo-8 calcium fluorescence; at 3 µM; stronger effect = higher value; 100% = response to 87 µM carbachol
In all, about 220,000 compounds went through this assay and about 390 (0.18%) were called active. This excerpt belongs to a sample that is enriched for actives.
# activation listing for each entry below
readoutLabel: activation (%)

1) CCc1nc2ccccc2c(C(=O)NCc2ccc(OC)cc2)c1C	-0.1
2) Cc1ccc2[nH]cc(CCNC(=O)c3ccc([N+](=O)[O-])cc3)c2c1	-0.48
3) COc1ccc(OCc2n[nH]c(=S)n2N)cc1	0.96
4) C=C(C)CNC(=S)N/N=C/c1ccccc1OCC(=O)O	1.26
5) CONc1nc2nonc2nc1NOC	2.6
6) Cc1cc(C)c(S(=O)(=O)N2CCOCC2)cc1C	-0.54

* * *

# activation listing for each entry below
System: transient receptor potential cation channel N1 (TRPN1/NompC), Danio rerio
experimentalDetails: zebrafish TRPN1 channel agonists, primary screen, cell-based, HEK293, calcium fluorescence (AID 1424);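 further: 0% = DMSO alone and 100% = 87 µM carbachol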
conditionParameters: HEK293 zebrafish TRPN1-YFP, Fluo-8 calcium fluorescence; at 3 µM; stronger effect = higher value; 100% = response to 87 µM carbachol
In all, about 220,000 compounds went through this assay and about 390 (0.18%) were called active. The list comes from a sample in which actives are over-represented; it also holds close analogues and randomly drawn compounds.
readoutLabel: activation (%)

1. CC(C)OC(=O)CN1CCN(c2ccc(Cl)cc2)CC1	4.98
2. NS(=O)(=O)c1ccc(NC(=O)COC(=O)c2cc3ccccc3oc2=O)cc1	0.38
3. COc1cc(C(=O)OC(C)C(=O)NCC2CCCCC2)cc(NC(=O)c2ccco2)c1OC (stereo not given)	-0.78
4. CC(CNS(=O)(=O)c1ccc(Br)cc1)CN(C)C (stereo not given)	0.45
5. O=C(Nc1nncs1)c1ccccc1NS(=O)(=O)c1cccs1	-0.5
6. COc1cccc(NC(=O)COC(=O)CCOc2ccccc2OC)c1	-1.34
7. COc1cc(-c2cc(C(=O)OCC(=O)Nc3ccc4c(c3)OCO4)c3ccccc3n2)cc(OC)c1OC	-1.87
8. NC(=O)c1ccc(NC(=O)COC(=O)c2c3c(nc4ccccc24)/C(=C\c2ccc4c(c2)OCO4)CCC3)cc1	41.6
9. NS(=O)(=O)c1ccc(NC(=O)COC(=O)c2ccc(Cl)nc2)cc1	1.46
10. COC(=O)c1ccccc1NC(=O)c1ccccc1NS(C)(=O)=O	-1.95

* * *

Test system: transient receptor potential cation channel N1 (TRPN1/NompC), Danio rerio
experimentalDetails: zebrafish TRPN1 channel agonists, primary screen, cell-based, HEK293, calcium fluorescence (AID 1424);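 further: 0% = DMSO alone and 100% = 87 µM carbachol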
conditionParameters: HEK293 zebrafish TRPN1-YFP, Fluo-8 calcium fluorescence; at 3 µM; 100% = response to 87 µM carbachol
Out of some 220,000 compounds screened, about 390 (0.18%) were called active.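 The calls were made as follows: active = activation above its plate's cutoff, the mean activation of test wells on that plate plus 3 SD (cut at about 19% in these data); inactive = the rest.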 The list comes from a sample in which actives are over-represented; it also holds close analogues and randomly drawn compounds.
Classes used: true (1) = active, false (0) = inactive

1. Cc1ccc(O)c(NC(=O)COc2cc(C)ccc2C)c1	false (0)
2. COc1c(C)cc(C(=O)C2CCCN(S(=O)(=O)c3c(C)noc3C)C2)cc1C (stereo unspecified)	false (0)
3. CC(=O)Nc1ccc(CN2CCN(Cc3ccc(F)c(F)c3)C(CCO)C2)cc1 (stereo unspecified)	false (0)
4. COC(=O)C1=NN(c2ccccc2)C2C(=O)N(c3ccccc3OC)C(=O)C12 (stereo unspecified)	false (0)
5. CC(=O)c1sc(NC(=O)C2=NN(c3ccccc3)C(=O)CC2)nc1C	false (0)
6. Cc1ccc(O)c(NC(=S)NC(=O)COc2ccc(Br)cc2)c1	true (1)
7. O=C(CCNC(=O)Cn1ccc2ccccc2c1=O)NCCC1=CCCCC1	false (0)
8. C/C=N/N(c1ccccc1)c1ccccc1	false (0)
9. Cc1cccc(OCC(=O)NC(=S)Nc2ccccc2N2CCOCC2)c1	false (0)
10. CC(C[N+](C)(C)C)OC(N)=O (stereo unspecified)	false (0)
11. CCn1c(Cc2ccccc2)nnc1SCC(=O)Nc1ccccc1	false (0)
